molecular target: native rat cortical TRH receptors; assay: TRH receptor binding: displacement of [3H][3-Me-His2]TRH from rat cortical membranes; settings: D isomer; JAK compounds dissolved in DMSO; read-out: Ki, inhibition of [3H]-3MeHis-TRH binding, X is D isomer aa
Square brackets hold non-standard residues; d marks the D form. Peptide text beside a SMILES is read from it. * marks the point of attachment. AMC = Cc1cc(=O)oc2cc(N*)ccc12; pGlu = O=C1CC[C@@H](C(=O)O)N1
OBSERVABLE: Ki (nM)
One number for each entry, in nM.

Some solved entries appear below for comparison.
Request: Which Ki is listed for NC(=O)[C@@H](Cc1c[nH]c2ccccc12)NC(=O)[C@@H](Cc1ccc(O)cc1)NC(=O)[C@@H]1CCCN1C(=O)[C@H](Cc1c[nH]cn1)NC(=O)[C@@H]1CCC(=O)N1 [JAK 7D, Glp-His-Pro-D-Tyr-D-TrpNH2] ([pGlu]HP[dY][dW]-NH2) ?
Response: 1000

Request: Which Ki is listed for Cc1cc(=O)oc2cc(NC(=O)[C@@H](Cc3c[nH]c4ccccc34)NC(=O)[C@@H](Cc3ccc(O)cc3)NC(=O)[C@@H]3CCCN3C(=O)[C@H](CC(N)=O)NC(=O)[C@@H]3CCC(=O)N3)ccc12 [JAK 2D, Glp-Asn-Pro-DTyr-DTrpAMC] ([pGlu]NP[dY][dW]-{AMC}) ?
Response: 3.7

Request: Which Ki is listed for Cc1cc(=O)oc2cc(NC(=O)[C@@H](Cc3c[nH]c4ccccc34)NC(=O)[C@@H](Cc3c[nH]c4ccccc34)NC(=O)[C@@H](Cc3ccc(O)cc3)NC(=O)[C@@H]3CCCN3C(=O)[C@H](CC(N)=O)NC(=O)[C@@H]3CCC(=O)N3)ccc12 [JAK 1D, Glp-Asn-Pro-DTyr-DTrp-DTrpAMC] ([pGlu]NP[dY][dW][dW]-{AMC}) ?
Response: 60

// switching to the query molecule
Request: Which Ki is listed for NC(=O)C[C@H](NC(=O)[C@@H]1CCC(=O)N1)C(=O)N1CCC[C@H]1C(=O)N[C@H](Cc1ccc(O)cc1)C(=O)N[C@H](Cc1c[nH]c2ccccc12)C(N)=O [JAK 4D, Glp-Asn-Pro-D-Tyr-D-TrpNH2] ([pGlu]NP[dY][dW]-NH2) ?
Response: 5.5

====

target: native rat cortical TRH receptors; experiment: TRH receptor binding: displacement of [3H][3-Me-His2]TRH from rat cortical membranes; details: L isomer; JAK compounds dissolved in DMSO; read-out: Ki, inhibition of [3H]-3MeHis-TRH binding, X is L isomer aa
Square brackets hold non-standard residues; d marks the D form. Peptide text beside a SMILES is read from it. pGlu = O=C1CC[C@@H](C(=O)O)N1
OBSERVABLE: pKi
One number for each entry, as −log10 of the molar value.

Request: Which pKi is listed for NC(=O)[C@@H]1CCCN1C(=O)[C@H](Cc1c[nH]cn1)NC(=O)[C@@H]1CCC(=O)N1 [TRH, pyroglutamyl-histidyl-prolineamide, reference compound] ?
Response: 7.66

// switching to the query molecule
Request: Which pKi is listed for NC(=O)C[C@H](NC(=O)[C@@H]1CCC(=O)N1)C(=O)N1CCC[C@H]1C(=O)N[C@@H](Cc1ccc(O)cc1)C(=O)N[C@@H](Cc1c[nH]c2ccccc12)C(N)=O [JAK 4, Glp-Asn-Pro-LTyr-LTrp-NH2] ([pGlu]NPYW-NH2) ?
Response: 6.92

Each recorded value in this set is attributed to patent US7713935B2.
